# Test system: K562
# Assay Text: NCI tumour cell line growth inhibition, 48 h
Active and inactive are the calls of the source. No stated cut-off is given here; in the data, active = GI50 up to about 1.1 µM and inactive = higher.
Answer each item with its documented GI50.

// below: answered compounds
Compound	Experimental System	Experimental Result
CN(C)CCNCCN	K562	> 100 µM (inactive)
O=c1c2ccccc2nc(-c2ccccc2Cl)n1NCC1(O)OCC(O)C(O)C1O (stereo not given)	K562	> 100 µM (inactive)

# return GI50 for each item in the list
1. Nc1ccc(Nc2nc(F)nc(-c3c4ccccc4c4n3CCS4)n2)cc1
2. COc1ccc(/C=N/N=C(\N)NO)c(OC)c1OC
3. Cn1c(=O)c2c(nc(C[N+]3([O-])CCOCC3)n2C)n(C)c1=O
4. Cc1ccccc1C(=O)N/N=C/c1ccc(Sc2nccn2C)c([N+](=O)[O-])c1
5. CC(=O)O[C@H]1[C@@H](OC2CCCC2(c2ccccc2)c2ccccc2)O[N+]([O-])=C[C@@H]1c1ccccc1 (stereo not given in full)
6. CCCCCCCC1C(C)c2c([nH]c3ccccc23)C2C(=O)N(c3ccc(OC)cc3)C(=O)C21 (stereo not given)
7. CSC(=S)Nc1cc(C)ccn1
8. Cn1c(=O)c2c(ncn2Cc2ccc(O)c([N+](=O)[O-])c2)n(C)c1=O

1: > 10 µM (inactive); 2: 23.2 µM (inactive); 3: > 100 µM (inactive); 4: 42.4 µM (inactive); 5: 4.41 µM (inactive); 6: 3.11 µM (inactive); 7: 62.5 µM (inactive); 8: > 100 µM (inactive)

###

Answer each item with its documented GI50.
# Tested on: A549
# Assay Text: NCI tumour cell line growth inhibition, 48 h
Activity calls are given as the source filed them. Rule as the data show it: active = GI50 up to about 1.1 µM and inactive = higher.

// below: answered molecules
> print(dat)
                                   molecule  experimental.result
1                   CCOC(=O)C(=O)Nc1ccccc1C  > 100 µM (inactive)
2  COCC1OC(OC2C3=C(C(C)C)CCC3(C)/C=C3\C(CCC3(O)COC)C(C)C2O)C(O)C2OC3OC12OC3(C)C1CO1 (configuration not stated)   53.8 µM (inactive)
3  CN(C)Cc1cc(C(=O)/C=C/c2ccc(Cl)cc2Cl)cc(CN(C)C)c1O   2.89 µM (inactive)
4  O=C(O)CSc1nnc(CCCCCCCCc2nnc(SCC(=O)O)o2)o1  > 100 µM (inactive)
5  CC(=O)OC1(C#N)CC2OC1C1C2N=NN1C(=O)OC(C)(C)C (configuration not stated)   34.4 µM (inactive)

# return GI50 for each item in the list
1. COc1cc2c(c(OC)c1)[C@H](C)N(Cc1ccccc1)C(C)C2 (some centres not stated)
2. Cc1ccc2c(O)cc(-c3ccc(Cl)cc3)nc2n1

1: 43.5 µM (inactive); 2: 2.73 µM (inactive)

###

Answer each item with its documented GI50.
# Test system: Hs-578T
# Assay Text: NCI tumour cell line growth inhibition, 48 h
Activity calls are given as the source filed them. Cut-off read from the data, not from the text of the source: active = GI50 up to about 1.1 µM and inactive = higher.

> print(dat)
                                   compound  experimental.system  experimental.result
1  C=C1C(=O)O[C@H]2C/C(C=O)=C\[C@H]3O[C@H]3/C(COC(=O)C(C)C)=C/CC12 (some centres not stated)              Hs-578T   2.89 µM (inactive)
2  CC1=NC(=N)N=C(C)C1/N=N/c1ccc2[nH]c(C)nc2c1 (configuration not stated)              Hs-578T  > 100 µM (inactive)
3  CCOC(=O)Cn1c(=O)c2nc(SC)sc2n(-c2ccccc2)c1=S              Hs-578T   4.18 µM (inactive)
4  Cc1ccc(-c2cs/c(=N\c3ccccc3)n2NC(=O)c2ccncc2)cc1              Hs-578T   57.5 µM (inactive)
5  C[C@]12CC[C@@H]3c4ccc(OCC(=O)O)cc4CC[C@H]3[C@@H]1CCC2=O              Hs-578T  > 100 µM (inactive)

# return GI50 for each item in the list
1. Cc1ccc(CN2CCN(Cc3ccc(C)o3)C(C)C2)o1 (configuration not stated)
2. NC1=Nc2cc(C(F)(F)F)ccc2Sc2nc3ccccc3n21

1. > 100 µM (inactive)
2. 42.1 µM (inactive)

###

Answer each item with its documented GI50.
# Tested on: OVCAR-4
# Assay Text: NCI tumour cell line growth inhibition, 48 h
Calls of active or inactive are those of the source. No stated cut-off is given here; in the data, active = GI50 up to about 1.1 µM and inactive = higher.

// below: answered molecules
> print(dat)
                                   molecule  experimental.result
1  O=C(/C=C1\Nc2ccc([N+](=O)[O-])cc2N=C1NC12CC3CC(CC(C3)C1)C2)c1ccccc1   3.96 µM (inactive)
2   N#CC1=C(N)N2C(=O)/C(=C/c3ccccc3O)N=C2S1   44.5 µM (inactive)
3        O=P(O)(NCCCl)NCCCl [PALIFOSFAMIDE]  > 100 µM (inactive)
4  COc1cc(/C=C2/C(=O)N(C(=O)c3ccc(Cl)cc3)N=C2C)cc(OC)c1OC  > 100 µM (inactive)
5  O=C(O)COc1ccc(C(=O)/C(SS/C(C(=O)c2ccc(OCC(=O)O)c(Cl)c2Cl)=C2\C=C(c3ccc(Br)cc3)SS2)=C2/C=C(c3ccc(Br)cc3)SS2)c(Cl)c1Cl   4.51 µM (inactive)
6     O=C(NO)C(=O)Nc1ccc(Cl)cc1[N+](=O)[O-]  > 100 µM (inactive)

# return GI50 for each item in the list
1. Nn1c(=S)[nH]nc(/C=C/c2c(O)ccc3ccccc23)c1=O
2. COc1cc(/C=C(\C)c2ccc3c(c2)OCO3)cc(OC)c1OC
3. COc1ccc(Nc2nc(C#N)c(N)s2)cc1
4. OCc1cc2c([nH]c3ccccc32)c(C(O)CO)n1 (stereo unspecified)
5. CC(=O)C1C(=O)C(=O)N(c2ccc([N+](=O)[O-])cc2)C1=O (stereo unspecified)

4.06 µM (inactive)
32.5 µM (inactive)
83.2 µM (inactive)
> 100 µM (inactive)
> 100 µM (inactive)

###

# System: A498
# Assay Text: NCI tumour cell line growth inhibition, 48 h
Calls of active or inactive are those of the source. Cut-off read from the data, not from the text of the source: active = GI50 up to about 1.1 µM and inactive = higher.
// one of yes = active, no = inactive, no free text

> print(dat)
                                compound  group
1  O=C(NO)C(=O)Nc1ccc(Cl)cc1[N+](=O)[O-]     no

Note: attention shifts to another entry.
Identify the outcome logged in this assay for the compound shown: CCOC(=O)c1nc2cc(C(F)(F)F)ccc2nc1Nc1ccc(F)cc1
no

###

# Tested on: DMS-114
# Assay Text: NCI tumour cell line growth inhibition, 48 h
Calls of active or inactive are those of the source. Rule as the data show it: active = GI50 up to about 1.1 µM and inactive = higher.
Readout Name: GI50

// below: answered compounds
Compound	Readout Name	Experimental Result
C=C(CN(C)C)C(=O)c1ccccc1OC	GI50	21.1 µM (inactive)
O=C(Cc1ccccc1)NS(=O)(=O)c1ccccc1	GI50	> 100 µM (inactive)
O=C(O)COc1ccc(C(=O)/C(SS/C(C(=O)c2ccc(OCC(=O)O)c(Cl)c2Cl)=C2\C=C(c3ccccc3Cl)SS2)=C2/C=C(c3ccccc3Cl)SS2)c(Cl)c1Cl	GI50	9.73 µM (inactive)

Now consider the entry below.
Field request: GI50 | item: C[C@@H]1C2=CC[C@@]3(C)C(CCC3[C@H](C)[C@H]3C[C@@]4(C)O[C@@](c5cccnc5)(O3)OC4(C)C)[C@@H]2C2OC2[C@@]12CCC(=O)O2 (some centres undefined)
33 µM (inactive)

###

# Test system: SNB-19
# Assay Text: NCI tumour cell line growth inhibition, 48 h
Activity calls are given as the source filed them. Cut-off read from the data, not from the text of the source: active = GI50 up to about 1.1 µM and inactive = higher. Where a SMILES comes first, the peptide text is derived from it. [ ]: non-standard residue; d: D form. The star is where a group is joined. Chg = N[CH](C(=O)O)C1CCCCC1; Cbz = O=C(OCc1ccccc1)*; OBn = c1ccc(CO*)cc1
Answer each item with its documented GI50.

// below: answered compounds
Compound	GI50
CCC1(c2ccc(OC)c(OC)c2)CCN2C(=O)C(O)CC21 (configuration not stated)	> 100 µM (inactive)
CCc1cccc(C)c1NC(=O)CC1C(=O)Nc2ccccc2S1(=O)=O (configuration not stated)	27.5 µM (inactive)
CCCCCCCC1C(C)c2c([nH]c3ccccc23)C2C(=O)N(c3ccc(OC)cc3)C(=O)C21 (configuration not stated)	3.31 µM (inactive)

# return GI50 for each item in the list
1. Nc1ccccc1NC(=O)c1ccc(CNC(=O)OCc2cccnc2)cc1
2. CCOC(=O)C1=C(C)N(Cc2ccccc2)C(=O)C1CC#N (configuration not stated)
3. O=[N+]([O-])c1cnc(N(CCO)CCO)s1
4. COC(=O)C(NC(=O)C(CC(=O)OCc1ccccc1)NC(=O)OCc1ccccc1)C1CCCCC1 (configuration not stated) (Cbz-Asp(OBn)-[Chg]-OMe; configuration not given here)

["2.65 µM (inactive)", "> 100 µM (inactive)", "> 100 µM (inactive)", "> 100 µM (inactive)"]
